The values you see were collected from patent US20230339970A1.

biological target: human CSNK1D (Homo sapiens, UniProt P48730); test: Whole Cell nBRET CSNK1D Binding Assay; conditions: living CHO cells stably expressing human CSNK1D tagged with nanoluciferase; NanoBret tracer 130 nM; 2 hours at 37 C
Measured Endpoint: IC50 (nM)

a: Fc1ccc(-c2nn3c(c2-c2ccnc4[nH]ncc24)CCC(F)(F)C3)cc1 [Example 42]
b: Cc1cc(-c2c(-c3ccc(F)cn3)nn3c2C[C@@]2(C3)CC2(F)F)c2cn[nH]c2n1 (single isomer, unassigned) [Example 260]
c: COc1ccc2nccc(-c3c(-c4ccc(F)cn4)nn4c3OCCC4)c2n1 [Example 190]
**Q:** Put the entries in order of IC50, starting with the largest number. Reply with the item labels sorted in the order that was asked for.
**A:** c, b, a
(c: 215 nM, b: 107 nM, a: 16 nM)

###

target: human recombinant GST cleaved CSNK1D (Homo sapiens); construct: GST (cleaved yes); experiment: Purified Enzyme Assay (ADP-Glo CSNK1D Kinase Assay); settings: 2 nM CSNK1D; peptide substrate 150 μM; ATP 20 μM; 45 minutes at room temperature
Sequence (P48730 whole entry): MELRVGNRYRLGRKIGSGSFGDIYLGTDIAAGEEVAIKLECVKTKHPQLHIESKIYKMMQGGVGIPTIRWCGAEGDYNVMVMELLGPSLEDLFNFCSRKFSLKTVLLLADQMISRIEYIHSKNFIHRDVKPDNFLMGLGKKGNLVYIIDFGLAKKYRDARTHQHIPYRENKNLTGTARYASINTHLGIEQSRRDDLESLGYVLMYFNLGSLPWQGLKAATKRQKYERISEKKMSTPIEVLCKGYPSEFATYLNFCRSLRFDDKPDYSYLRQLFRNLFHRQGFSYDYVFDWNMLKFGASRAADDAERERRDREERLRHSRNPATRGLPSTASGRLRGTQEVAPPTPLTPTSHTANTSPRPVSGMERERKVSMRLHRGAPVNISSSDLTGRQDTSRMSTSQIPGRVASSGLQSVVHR
Measured Endpoint: IC50 (nM)

The following compounds have reported results that may help.
Fc1ccc(-c2nn3c(c2-c2ccnc4[nH]ccc24)CCCC3)nc1 [Example 3] : 8
CC1(C)Cn2nc(-c3ccc(F)cn3)c(-c3cc(CCC(F)(F)F)nc4[nH]ncc34)c2CO1 [Example 391] : 258
CCC(=O)Nc1cc(-c2c(-c3ccc(F)cn3)nn3c2COC(C)(C)C3)c(C)cn1 [Example 379] : 41
Cc1nc2[nH]nc(C)c2c(-c2c(-c3ccc(F)cn3)nn3c2CC[C@@]2(C3)CC2(F)F)c1F (single isomer, unassigned) [Example 333] : 4960

I: [2H]C([2H])([2H])C1(C([2H])([2H])[2H])Cc2c(-c3c(F)c(C)nc4[nH]ncc34)c(-c3ccc(F)cn3)nn2C1 [Example 244]
II: Nc1cc(-c2c(-c3ccc(F)cc3)nn3c2CCC(F)(F)C3)ccn1 [Example 41]
**Q:** Kindly compare I with II and tell me which has the lower IC50 figure. // output: label of the selected item
**A:** I
(I: 4 nM, II: 8 nM)

###

molecular target: human recombinant GST cleaved CSNK1D (Homo sapiens); construct: GST (cleaved yes); test: Purified Enzyme Assay (ADP-Glo CSNK1D Kinase Assay); conditions: 2 nM CSNK1D; peptide substrate 150 μM; ATP 20 μM; 45 minutes at room temperature
Measured Endpoint: IC50 (nM)

The following compounds have reported results that may help.
C[C@H]1OCc2c(-c3ccnc4[nH]ncc34)c(-c3ccc(F)cc3)nn2[C@H]1C (relative stereo) : 3
C[C@H]1n2nc(-c3ccc(F)cn3)c(-c3ccnc4[nH]ncc34)c2COC1(C)C (single isomer, unassigned) : 42
CC1(C)Cn2nc(-c3cnco3)c(-c3ccnc4[nH]ncc34)c2CO1 : 21
Cc1cc(-c2c(-c3ccc(F)cc3)nn3c2OCCCC3)c2cn[nH]c2n1 : 2

P: Fc1ccc(-c2nn3c(c2-c2ccnc4[nH]ncc24)C(F)(F)CC3)nc1
Q: Fc1ccc(-c2nn3c(c2-c2ccnc4[nH]ncc24)OCC2(C3)CC2(F)F)cc1 (single isomer, unassigned) [Example 477]
**Q:** Lab notebook, comparison: P versus Q , higher IC50 goes to which? // output: label of the selected item
**A:** P
(P: 27 nM, Q: 6 nM)
